Ref: patent US20260069689A1

- Target Entity: SARS-COV-2 RBD-MMH (SARS-COV-2 RBD extracellular domain with C-terminal myc-myc-hexahistidine tag) (SARS-CoV-2)
Output fulfilled for koff not less than 0.003 s⁻¹; output not fulfilled otherwise.

### Prompt Check if koff >= 0.003 s⁻¹ (inclusive). Item: mAb15163 (antibody, V domains shown) VH: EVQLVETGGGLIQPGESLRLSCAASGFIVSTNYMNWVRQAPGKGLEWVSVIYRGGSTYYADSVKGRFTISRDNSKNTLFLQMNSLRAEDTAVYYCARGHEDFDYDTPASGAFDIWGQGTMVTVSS VL: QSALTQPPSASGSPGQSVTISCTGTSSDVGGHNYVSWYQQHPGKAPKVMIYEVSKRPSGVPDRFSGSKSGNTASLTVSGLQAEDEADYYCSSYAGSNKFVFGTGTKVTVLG
### Response not fulfilled

### Prompt Exam item: decide whether the reported koff for mAb15159 (antibody, V domains shown) VH: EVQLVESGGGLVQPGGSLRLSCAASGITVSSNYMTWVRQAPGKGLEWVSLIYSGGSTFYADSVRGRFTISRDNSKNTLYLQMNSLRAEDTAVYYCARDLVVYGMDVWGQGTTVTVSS VL: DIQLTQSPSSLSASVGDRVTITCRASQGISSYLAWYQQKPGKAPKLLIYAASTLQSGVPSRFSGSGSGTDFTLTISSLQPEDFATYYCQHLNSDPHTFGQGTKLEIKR is at least 0.003 s⁻¹.
### Response not fulfilled

### Prompt # check: koff of mAb14230 (antibody, V domains shown) VH: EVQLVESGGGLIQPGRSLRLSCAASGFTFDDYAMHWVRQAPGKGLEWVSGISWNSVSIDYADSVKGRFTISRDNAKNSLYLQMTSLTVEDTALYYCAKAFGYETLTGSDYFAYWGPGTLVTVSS VL: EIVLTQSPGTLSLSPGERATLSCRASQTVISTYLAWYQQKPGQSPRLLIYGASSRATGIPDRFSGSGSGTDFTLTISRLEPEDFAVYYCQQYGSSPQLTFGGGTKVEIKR is greater than or equal to 0.003 s⁻¹
### Response fulfilled

### Prompt Determine whether this binder has koff no lower than 0.003 s⁻¹: mAb14234 (antibody, V domains shown) VH: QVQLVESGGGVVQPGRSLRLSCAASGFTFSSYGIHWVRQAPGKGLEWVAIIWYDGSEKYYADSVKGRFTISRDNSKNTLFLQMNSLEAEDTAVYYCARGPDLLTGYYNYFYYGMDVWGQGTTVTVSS VL: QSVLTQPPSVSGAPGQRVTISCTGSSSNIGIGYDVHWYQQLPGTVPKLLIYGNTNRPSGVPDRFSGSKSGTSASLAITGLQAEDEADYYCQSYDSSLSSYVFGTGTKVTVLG
### Response not fulfilled

### Prompt Threshold query (koff >= 0.003 s⁻¹) on mAb15151 (antibody, V domains shown) VH: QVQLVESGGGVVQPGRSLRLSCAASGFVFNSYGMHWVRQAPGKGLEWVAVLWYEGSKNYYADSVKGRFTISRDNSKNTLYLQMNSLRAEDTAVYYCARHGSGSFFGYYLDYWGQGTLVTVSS VL: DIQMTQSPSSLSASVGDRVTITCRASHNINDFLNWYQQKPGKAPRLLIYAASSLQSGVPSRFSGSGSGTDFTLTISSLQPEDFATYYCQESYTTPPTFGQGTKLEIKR
### Response fulfilled

### Prompt Determine whether measured koff meets or exceeds 0.003 s⁻¹ for mAb15164 (antibody, V domains shown) VH: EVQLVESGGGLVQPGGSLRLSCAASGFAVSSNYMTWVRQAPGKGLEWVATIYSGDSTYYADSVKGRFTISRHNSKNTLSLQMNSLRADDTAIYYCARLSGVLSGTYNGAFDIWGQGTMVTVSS VL: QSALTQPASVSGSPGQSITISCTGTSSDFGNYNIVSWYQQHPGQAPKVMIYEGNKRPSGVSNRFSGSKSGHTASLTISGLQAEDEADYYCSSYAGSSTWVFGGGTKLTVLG
### Response not fulfilled

### Prompt Is it the case that mAb15166 (antibody, V domains shown) VH: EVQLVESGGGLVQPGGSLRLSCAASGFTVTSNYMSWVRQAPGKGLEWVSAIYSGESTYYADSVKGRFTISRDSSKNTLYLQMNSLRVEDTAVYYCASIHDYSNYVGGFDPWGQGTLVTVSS VL: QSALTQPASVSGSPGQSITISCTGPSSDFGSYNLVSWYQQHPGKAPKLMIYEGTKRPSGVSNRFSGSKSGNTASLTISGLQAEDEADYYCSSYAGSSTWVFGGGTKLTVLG has koff reaching or exceeding 0.003 s⁻¹?
### Response fulfilled

### Prompt koff >= 0.003 s⁻¹ for mAb15160 (antibody, V domains shown) VH: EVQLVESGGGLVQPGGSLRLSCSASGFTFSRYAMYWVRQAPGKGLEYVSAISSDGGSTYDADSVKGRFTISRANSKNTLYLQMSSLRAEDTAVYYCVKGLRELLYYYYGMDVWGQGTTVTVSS VL: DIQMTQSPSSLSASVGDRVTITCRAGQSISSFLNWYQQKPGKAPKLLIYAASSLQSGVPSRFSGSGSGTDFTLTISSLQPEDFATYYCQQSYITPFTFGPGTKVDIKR ?
### Response not fulfilled

### Prompt Has mAb14285 (antibody, V domains shown) VH: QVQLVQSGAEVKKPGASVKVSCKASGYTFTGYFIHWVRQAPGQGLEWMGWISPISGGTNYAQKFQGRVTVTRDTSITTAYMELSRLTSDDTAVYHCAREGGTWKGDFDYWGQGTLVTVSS VL: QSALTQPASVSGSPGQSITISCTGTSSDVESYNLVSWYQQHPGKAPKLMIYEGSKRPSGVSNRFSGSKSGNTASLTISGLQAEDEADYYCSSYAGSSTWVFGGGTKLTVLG a recorded koff greater than or equal to 0.003 s⁻¹?
### Response fulfilled
